# studySystem: Solute carrier family 22 member 12 (Homo sapiens)
# Sequence (Q96S37 whole entry): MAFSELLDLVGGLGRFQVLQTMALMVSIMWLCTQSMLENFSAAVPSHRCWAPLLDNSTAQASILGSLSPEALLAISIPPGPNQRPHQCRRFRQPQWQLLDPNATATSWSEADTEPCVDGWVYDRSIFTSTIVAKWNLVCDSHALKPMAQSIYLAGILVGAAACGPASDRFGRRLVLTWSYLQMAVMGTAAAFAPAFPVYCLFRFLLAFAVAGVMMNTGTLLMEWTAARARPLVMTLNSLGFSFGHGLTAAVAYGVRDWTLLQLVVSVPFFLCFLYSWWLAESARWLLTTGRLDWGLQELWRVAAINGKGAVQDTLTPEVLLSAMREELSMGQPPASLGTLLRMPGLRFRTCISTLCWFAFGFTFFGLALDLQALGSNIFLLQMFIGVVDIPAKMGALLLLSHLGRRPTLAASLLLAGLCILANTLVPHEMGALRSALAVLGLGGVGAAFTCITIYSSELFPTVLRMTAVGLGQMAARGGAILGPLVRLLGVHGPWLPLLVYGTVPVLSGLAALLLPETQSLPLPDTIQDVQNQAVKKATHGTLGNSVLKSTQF
# assayExplanation: Inhibition of URAT1 (unknown origin)-mediated 14C-uric acid uptake expressed in HEK293 cells using 14C-uric acid as substrate preincubated for 30 mins followed by substrate addition and measured after 15 mins by liquid scintillation counting analysis
Flag rule - IC50 less than 4 µM flags 1; the remaining entries get -1.

I wonder whether CN(c1cnccc1SCc1ccccc1C(=O)O)c1ccc(C#N)c2ccccc12 has IC50 below 4 µM. Can you tell?
-1

Find out if reported IC50 for N#Cc1ccc(Oc2cnccc2SCCCCC(=O)O)c2ccccc12 is less than 4 µM
-1

Is IC50 of CN(c1cnccc1SCCCCCC(=O)O)c1ccc(C#N)c2ccccc12 strictly below 4 µM?
1

Here's an entry: N#Cc1ccc(Nc2cnccc2SCc2ccccc2C(=O)[O-])c2ccccc12.[Na+] . Is its IC50 below 4 µM?
1

Regarding CN(c1cnccc1SCc1cccc(C(=O)O)c1)c1ccc(C#N)c2ccccc12 , kindly confirm whether its IC50 is beneath 4 µM.
1

# check: IC50 < 4 µM for CC(C)(Sc1ccncc1Oc1ccc(C#N)c2ccccc12)C(=O)O
-1

Hello, is IC50 of the following molecule strictly smaller than 4 µM? COc1cc(C(=O)O)ccc1CSc1ccncc1Nc1ccc(C#N)c2ccccc12
1

Hi there! Is IC50 for N#Cc1ccc(Oc2cnccc2SCC(=O)O)c2ccccc12 below 4 µM, do you know?
-1

Lab note: confirm whether the reported IC50 for this molecule is below 4 µM, equality not counting. molecule: CN(c1cnccc1SCc1ccc(C(=O)O)cc1)c1ccc(C#N)c2ccccc12
-1

Is IC50 strictly under 4 µM for the entry N#Cc1ccc(Nc2cnccc2Sc2ccc(Br)cc2CC(=O)O)c2ccccc12 ?
-1
